This collection of values is drawn from patent US10258602B2.

Molecular target: CYP2B6 (Homo sapiens)
Construct: purchased BD Gentest, Becton-Dickinson (Supersomes); host or cells: insect cells
Sequence (P20813 whole entry): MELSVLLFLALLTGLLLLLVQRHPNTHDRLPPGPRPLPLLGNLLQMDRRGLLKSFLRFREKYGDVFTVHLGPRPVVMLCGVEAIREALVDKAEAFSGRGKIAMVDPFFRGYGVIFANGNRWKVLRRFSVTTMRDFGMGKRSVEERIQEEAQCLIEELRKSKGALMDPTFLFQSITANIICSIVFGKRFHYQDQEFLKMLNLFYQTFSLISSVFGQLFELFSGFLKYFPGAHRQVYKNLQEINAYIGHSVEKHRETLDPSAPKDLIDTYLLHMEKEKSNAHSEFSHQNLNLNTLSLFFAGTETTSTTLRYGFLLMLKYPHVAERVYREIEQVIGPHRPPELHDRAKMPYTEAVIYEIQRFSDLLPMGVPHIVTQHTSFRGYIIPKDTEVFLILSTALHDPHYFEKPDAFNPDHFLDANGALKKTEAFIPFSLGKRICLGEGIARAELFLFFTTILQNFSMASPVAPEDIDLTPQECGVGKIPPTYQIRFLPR
Test: Cytochrome P450 inhibition, CYP2B6
Format: in vitro ADME
Settings: read-out: IC50 2B6
# Lookup of reported IC50 keyed by entry
quantity.name: IC50

compound="CC1CNC(C2CC2)C(=O)N(C)C(C)C(=O)NC(Cc2ccc(O)cc2)C(=O)NCCCC2CCCCC2O1 (mixture of isomers)" study_target="CYP2B6 (Homo sapiens)" quantity_name=IC50 result_value="> 100 µM"
compound=CC(C)C[C@H]1NC(=O)[C@@H](C)N(C)C(=O)[C@H](C2CC2)NCCOc2cc(F)ccc2CC[C@H](C)NC1=O study_target="CYP2B6 (Homo sapiens)" quantity_name=IC50 result_value="> 100 µM"
compound=CC(C)C[C@H]1NC(=O)[C@@H](C)N(C)C(=O)[C@H](C2CC2)NCCOc2cc(F)ccc2CCCNC1=O study_target="CYP2B6 (Homo sapiens)" quantity_name=IC50 result_value="102 µM"
compound="CC(C)CC1NC(=O)C(C)N(C)C(=O)C(C2CC2)NCC(C)OC2CCCCC2CCCNC1=O (mixture of isomers)" study_target="CYP2B6 (Homo sapiens)" quantity_name=IC50 result_value="> 100 µM"
compound=CC(C)C[C@H]1NC(=O)[C@@H](C)N(C)C(=O)[C@H](C2CC2)NCCOc2c(ccc(F)c2F)CCCNC1=O study_target="CYP2B6 (Homo sapiens)" quantity_name=IC50 result_value="> 100 µM"
compound="CC1NC(C2CC2)C(=O)N(C)C(C)C(=O)NC(Cc2ccc(O)cc2)C(=O)NCCCc2ccccc2OC1C (stereo not shown)" study_target="CYP2B6 (Homo sapiens)" quantity_name=IC50 result_value="> 100 µM"
compound="CC(C)CC1NC(=O)C(C)N(C)C(=O)C(C2CCCCC2)NCC(C)OC2CCCCC2CCCNC1=O (mixture of isomers)" study_target="CYP2B6 (Homo sapiens)" quantity_name=IC50 result_value="> 100 µM"
compound=C[C@@H]1C(=O)N[C@H](Cc2ccc(O)cc2)C(=O)NCCCc2cccc3c2O[C@H](CC3)CN[C@@H](C2CC2)C(=O)N1C study_target="CYP2B6 (Homo sapiens)" quantity_name=IC50 result_value="53.6 µM"
compound=CC(C)C[C@H]1NC(=O)[C@@H](C)N(C)C(=O)[C@H](C2CC2)NC[C@@H](C)Oc2ccccc2CC[C@H](C)NC1=O study_target="CYP2B6 (Homo sapiens)" quantity_name=IC50 result_value="> 100 µM"
compound=C[C@@H]1C(=O)N[C@H](Cc2ccc(O)cc2)C(=O)NCCCc2ccc(F)cc2OCCN[C@@H](C2CC2)C(=O)N1C study_target="CYP2B6 (Homo sapiens)" quantity_name=IC50 result_value="> 100 µM"

###

Assay: in vitro
Conditions: human, Caco-2
quantity.name: Papp A→B at 60 min, 10 μM (×10⁻⁶ cm/s)

structure=CC(C)C[C@H]1NC(=O)[C@@H](C)N(C)C(=O)[C@H](C2CCCCC2)NC[C@H]2CCc3cccc(c3O2)CCCNC1=O result_value=163

###

# Lookup of reported Oral Bioavailability (rat, % F) keyed by entry
Experiment: Pharmacokinetic analysis (oral bioavailability, elimination half-life) in the rat
Format: in vivo
Conditions: oral administration, 8 mg/kg dose, HPLC-MS
quantity.name: Oral Bioavailability (rat, % F)

molecule="C[C@@H]1CN[C@@H](C2CC2)C(=O)N(C)[C@H](C)C(=O)N[C@H](Cc2ccc(O)cc2)C(=O)N(C)CCCc2ccccc2O1 [Compound 1069]" quantity_name="Oral Bioavailability (rat, % F)" result_value="32 % F"
molecule="C[C@@H]1CN[C@@H](C2CC2)C(=O)N(C)[C@H](C)C(=O)N[C@H](Cc2ccc(F)cc2)C(=O)NCCCc2cccc(F)c2O1 [Compound 935]" quantity_name="Oral Bioavailability (rat, % F)" result_value="11 % F"
molecule="C[C@@H]1CN[C@@H](C2CC2)C(=O)N(C)[C@H](C)C(=O)N[C@H](Cc2ccc(O)cc2)C(=O)NCCCc2ccccc2O1 [Compound 989]" quantity_name="Oral Bioavailability (rat, % F)" result_value="7 % F"
